Data origin, for the record: paper PMC9482650

Molecular target: NHERF4_1, Q86UT5-2
Sequence (Q86UT5 other isoform, or with tags, fused parts or gaps): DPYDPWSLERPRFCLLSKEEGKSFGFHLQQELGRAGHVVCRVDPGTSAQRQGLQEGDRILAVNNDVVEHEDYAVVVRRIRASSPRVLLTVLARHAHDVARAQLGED
Assay: holdup assay
Design: key: below the threshold = too weak to quantify, mostly under pKd 3.1 to 4
Settings: plain residues with an end cap or a label only (N-terminal biotin on a linker: ado-ado)
Kindly supply the reported pKd values for the records listed here.
Please state the value as a number alone, without comment.

Query block: Please report pKd for the following binder: NIAESLESLV [PTPRZ1, P23471]
Result block: 3.7

Query block: Check the records and state pKd for RDPPAEWTRV [PTPN18, Q99952]
Result block: 3.62

Query block: Kindly indicate its recorded pKd. Item: DTKNYKQTSV [CRIPT, Q9P021]
Result block: 3.53

Query block: // fetch pKd given entry GEDRSPPTAL [MKNK1, Q9BUB5]
Result block: 4.34

Query block: Note down pKd recorded for ARSAAASNYV [CLDN4, O14493]
Result block: 3.7

Query block: Note down pKd recorded for REEPDHSTEV [CCRL2, O00421]
Result block: 3.53

Query block: Supply pKd value. Item: RQKEVRESKC [SCN8A, Q9UQD0]
Result block: 3.91

Query block: Query pKd for EKCGKEFSEF [PRKACA, P17612]
Result block: 3.56

Query block: State, in one line, measured pKd of TISFTQTSQF [SLC1A1, P43005]
Result block: 3.99

Query block: Tell me its pKd given GTGYDRKDYV [CLDN3, O15551] as the entry.
Result block: 3.66
